# method.description: qHTS for differential inhibitors of proliferation of Plasmodium falciparum line HB3 (AID 1886);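 further: parasites grown with compound for 72 h before SYBR Green readout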
# particulars: Plasmodium falciparum HB3 proliferation inhibition; series mostly up to 28.7 µM
Records with an inconclusive call do not appear. Calls of active or inactive are those of the source. The call rests on the fitted dose curve; in most records, active means well fitted curve in the direction sought with a large enough effect; inconclusive means small, poorly fitted or top-dose-only effect, or another doubt; inactive means no such curve, though single readings can be large or run the other way.
Your response should consist of one outcome taken from class 1 for active, class 0 for inactive

Worked examples, 4 molecules total:
{"mol": "O=C1NC(c2cccc([N+](=O)[O-])c2)=CCN1c1ccccc1O", "answer.label": "class 0"}
{"mol": "C[N+](C)(C)CCO", "answer.label": "class 0"}
{"mol": "COc1ccccc1N1CCN(CCN2C(=O)CC3(CCCC3)CC2=O)CC1", "answer.label": "class 0"}
{"mol": "CN(C)c1cc2c(Nc3ccc4c(cnn4Cc4ccccc4)c3)ncnc2cn1", "answer.label": "class 1"}

Field: outcome | Entry: `O=[N+]([O-])c1ccc(-c2nc(-c3ccc(F)cc3)c(-c3ccncc3)[nH]2)cc1`
class 1

====

# System: Zika virus NS2B-NS3 protease
# method.description: Primary screen GU AMC qHTS for Zika virus inhibitors (AID 1347154);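 further: 0% = no-inhibitor control and -100% = no-enzyme control; nearly all actives have a fitted effect of over 70% in size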
# particulars: Zika NS2B-NS3 unlinked protease, AMC fluorogenic substrate; series mostly up to 54.1 µM
Results filed as inconclusive are left out. Calls of active or inactive are those of the source. Calls come from the whole dose curve; as a rule, active = well fitted inhibition curve with a large enough effect; inconclusive = small, poorly fitted or top-dose-only effect; inactive = flat fitted curve, though single readings scatter.
parameter.measured: outcome

Look over these answered cases.
{"molecule": "CC[N+](CC)(CC)CCOC(=O)C(C1CCCC1)C1CCCC1", "outcome": "inactive"}
{"molecule": "CCCc1ccc(OCC(=O)N2CCN(C(=O)COc3ccc(CCC)cc3OC)CC2)c(OC)c1", "outcome": "inactive"}
{"molecule": "CC(NCCC(c1ccccc1)c1ccccc1)c1ccccc1 (configuration not stated)", "outcome": "inactive"}
{"molecule": "CC(=O)[C@H]1CC[C@H]2[C@@H]3C=CC4=CC(=O)CC[C@@]4(C)[C@@H]3CC[C@]12C", "outcome": "inactive"}
{"molecule": "COc1ccc(CCC(C)=O)cc1", "outcome": "inactive"}

Which outcome is listed for `O=C(O)c1ccc(OCCN2CCCCC2)cc1` ?
inactive

Which outcome is listed for `CCCCOC(=O)CCCCCCCCC(=O)OCCCC` ?
inactive

Which outcome is listed for `NCC(=O)O` ?
inactive

Which outcome is listed for `O=C(O)C1CCC1` ?
inactive

Which outcome is listed for `CCCC(=O)O[C@]1(C(=O)COC(=O)CC)CC[C@H]2[C@@H]3CCC4=CC(=O)CC[C@]4(C)[C@H]3[C@@H](O)C[C@@]21C` ?
inactive

Which outcome is listed for `CC(=O)N1CCN(c2ccc(O)cc2)CC1` ?
inactive

Which outcome is listed for Cn1cc(S(C)=O)c(=O)c2ccc(F)cc21 (configuration not stated) ?
inactive

====

# method.description: qHTS of pediatric cancer cell lines to identify multiple opportunities for drug repurposing: Primary screen for DAOY cells (AID 1347090); further: nearly all actives have a fitted effect of over 55% in size
# particulars: DAOY medulloblastoma viability, CellTiter-Glo luminescence, 48 h; series mostly up to 46 µM
Results filed as inconclusive are left out. Calls of active or inactive are those of the source. Calls come from the whole dose curve; as a rule, active = well fitted cell-killing curve with a large enough effect; inconclusive = small, poorly fitted or top-dose-only effect; inactive = flat fitted curve, though single readings scatter.
Your response should consist of one outcome taken from class 1 (active), class 0 (inactive)

Worked examples, 2 compounds total:
{"compound": "CC[N+]1(CC)CCC(=C(c2ccccc2)c2ccccc2)C1C (stereo unspecified)", "answer.label": "class 0"}
{"compound": "O=[N+]([O-])c1nccn1CO[C@@H](CO)[C@H](O)CO", "answer.label": "class 0"}

Field: outcome | Entry: `CCOc1c(N2CCOCC2)cnn(C)c1=O`
class 0

Field: outcome | Entry: `CC[C@@]1(O)C(=O)OCc2c1cc1n(c2=O)Cc2c-1nc1ccccc1c2/C=N/OC(C)(C)C`
class 1

Field: outcome | Entry: `O=C(CO)[C@@H](O)[C@H](O)[C@@H](O)CO`
class 0

Field: outcome | Entry: `Nc1nc(=O)n([C@@H]2O[C@H](CO)[C@@H](O)[C@@H]2F)cc1I`
class 0

Field: outcome | Entry: CC(C(=O)O)c1ccc(/C=C2\CCCCC2=O)cc1 (stereo unspecified)
class 0

Field: outcome | Entry: `CNC(=O)c1cnn(-c2nc(N)c3ncn([C@@H]4O[C@H](CO)[C@@H](O)[C@H]4O)c3n2)c1`
class 0

Field: outcome | Entry: CCCCC/C=C\C/C=C\CCCCCCCC(=O)NC(C)c1ccccc1 (stereo unspecified)
class 0
